Documented switch fluorescence ratio across a set of sequences
Test system: ATP;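 further: ATP exposure 15 min at 22 °C before imaging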
Experiment: switch fluorescence ratio, 500 uM ATP over buffer (Cy3 cluster intensity, sum of 5 cycles each) (fold (ratio)); higher = stronger signal-on switching upon ATP binding; sequences stand for … in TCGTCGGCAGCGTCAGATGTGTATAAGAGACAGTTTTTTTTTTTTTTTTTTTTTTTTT…TC
Settings: aptamer strand: ATP DNA aptamer (quencher-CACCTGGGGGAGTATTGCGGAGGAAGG + anchor), 100 nM annealed; ATP concentration: 500 uM
recorded.endpoint: switch fluorescence ratio

> print(dat)
    sequence.code          recorded.endpoint  measurement
 1     ATGTGGGTAC  switch fluorescence ratio         1.02
 2     CAGGATGTAC  switch fluorescence ratio         1.05
 3     ATCGGGATAG  switch fluorescence ratio         1.04
 4     TTGGATGTTG  switch fluorescence ratio         1.01
 5     CGATAAAGAG  switch fluorescence ratio         1.02
 6     CAGTTGACTC  switch fluorescence ratio            1
 7     GCAAAAAGGT  switch fluorescence ratio        0.996
 8     AGTAGCTCGG  switch fluorescence ratio         1.01
 9     AGCTACCTTA  switch fluorescence ratio         1.09
10     TTGCAGATTT  switch fluorescence ratio        0.985
11     CAATAGAAGT  switch fluorescence ratio        0.979
12     CAACAGGGGG  switch fluorescence ratio         1.06
13     ACAGAATCGA  switch fluorescence ratio         1.02
14     CAACACGGTG  switch fluorescence ratio         1.08
15     GCGGAAGGAG  switch fluorescence ratio            1
16     GGTTGTCATG  switch fluorescence ratio        0.967
17     AATTTATCCG  switch fluorescence ratio         1.02
18     CGGTTCATCC  switch fluorescence ratio         1.02
19     GATGAATGAC  switch fluorescence ratio         1.02
20     TGCAAATTGC  switch fluorescence ratio        0.997
21     AATTTTGGTT  switch fluorescence ratio         0.99
22     ATGGATGGGG  switch fluorescence ratio        0.998
23     GCGATAGCTC  switch fluorescence ratio        0.973
24     AAGTGGGCGT  switch fluorescence ratio         1.01
25     ATTGTCAGTT  switch fluorescence ratio         1.01
26     TCCGACTGAT  switch fluorescence ratio         1.72
27     ATGTCACTGT  switch fluorescence ratio         1.01
28     TTGGCTGTGC  switch fluorescence ratio         1.02
29     TAATAATTCT  switch fluorescence ratio         0.99
30     AGTTTGTGAC  switch fluorescence ratio        0.989
31     GGATAGGGGG  switch fluorescence ratio        0.996
32     GTAATCTTTA  switch fluorescence ratio        0.982
33     GGGATTGTGT  switch fluorescence ratio        0.963
34     TGAAGATATA  switch fluorescence ratio         0.99
35     ATTTTGAAGC  switch fluorescence ratio        0.991
36     TTTATTTCTG  switch fluorescence ratio        0.959
37     CAGGCCATGG  switch fluorescence ratio         1.03
38     GGAATAAAGT  switch fluorescence ratio        0.996
39     CTAATATGGG  switch fluorescence ratio         1.04
40     CTCGCTTTTT  switch fluorescence ratio          1.2
41     AGTATGTGGA  switch fluorescence ratio        0.973
42     CGGGGGGCTC  switch fluorescence ratio         0.99
43     TTATTTGCCT  switch fluorescence ratio         1.17

====

Documented switch fluorescence ratio across a set of sequences
System: ATP;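 further: ATP exposure 15 min at 22 °C before imaging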
Assay: switch fluorescence ratio, 500 uM ATP over buffer (Cy3 cluster intensity, sum of 5 cycles each) (fold (ratio)); higher = stronger signal-on switching upon ATP binding; sequences stand for … in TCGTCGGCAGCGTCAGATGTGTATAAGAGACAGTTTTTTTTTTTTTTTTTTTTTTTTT…TC
Conditions: aptamer strand: ATP DNA aptamer (quencher-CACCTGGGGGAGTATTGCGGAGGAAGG + anchor), 100 nM annealed; ATP concentration: 500 uM
recorded.endpoint: switch fluorescence ratio

> print(dat)
    sequence.code          recorded.endpoint  measurement
 1     TTTGGATGGA  switch fluorescence ratio         1.02
 2     ATGTGAGGGA  switch fluorescence ratio        0.991
 3     GTATGAGGTG  switch fluorescence ratio         1.02
 4     TGGGGGGGGT  switch fluorescence ratio         1.02
 5     TATACATGCG  switch fluorescence ratio         1.04
 6     AGGTTTGCTA  switch fluorescence ratio        0.959
 7     CGTATAGTTA  switch fluorescence ratio        0.987
 8     TCGGTGGAGC  switch fluorescence ratio         1.02
 9     TCAATGATTT  switch fluorescence ratio        0.969
10     ATAGTTTGAC  switch fluorescence ratio         1.01
11     GCTTGCTCAT  switch fluorescence ratio         1.02
12     TAAGGGTAAT  switch fluorescence ratio        0.973
13     GATCTTCGTT  switch fluorescence ratio         1.01
14     TTGAGGCCCA  switch fluorescence ratio         1.17
15     CATGAATTTT  switch fluorescence ratio        0.982
16     GCGTATTGAG  switch fluorescence ratio         1.02
17     AGTATTTGAG  switch fluorescence ratio        0.975
18     TCGTGTGGAG  switch fluorescence ratio         1.01
19     CGCGTCATGA  switch fluorescence ratio         1.02
20     TGTTATTAGT  switch fluorescence ratio         1.01
21     TTGGGGTGTT  switch fluorescence ratio            1
22     GGCTGCCAGT  switch fluorescence ratio        0.991
23     TGGGAGTGGG  switch fluorescence ratio        0.983
24     AGGCGAGGGG  switch fluorescence ratio        0.988
25     AGCGGCCTAA  switch fluorescence ratio        0.987
26     TGTGGGGTTT  switch fluorescence ratio            1
27     CATGGGTTTG  switch fluorescence ratio        0.992
28     ACGAGACGAC  switch fluorescence ratio         1.06
29     GGGGCCTTGG  switch fluorescence ratio         1.01
30     GTGGTGAGGA  switch fluorescence ratio        0.953
31     GGTCCTAGTC  switch fluorescence ratio        0.946
32     GGGATACGCT  switch fluorescence ratio         1.03
33     TTAGGGTCCC  switch fluorescence ratio         1.02
34     GATTCTCTAT  switch fluorescence ratio         1.01
35     ATGGATGCGT  switch fluorescence ratio        0.967
36     TTGGGATAGG  switch fluorescence ratio         1.01
37     TACAGGGGGG  switch fluorescence ratio            1
38     TAATGGTTGC  switch fluorescence ratio        0.996
39     TTCAGTTGGT  switch fluorescence ratio        0.987
40     GAGGGGAGGC  switch fluorescence ratio         1.29
41     TTTGTTGTCT  switch fluorescence ratio        0.995
42     ATTTTCAGTT  switch fluorescence ratio         1.01
43     ATGGAGGTAG  switch fluorescence ratio        0.995

====

Documented switch fluorescence ratio across a set of sequences
Test system: ATP;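 further: ATP exposure 15 min at 22 °C before imaging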
Experiment: switch fluorescence ratio, 500 uM ATP over buffer (Cy3 cluster intensity, sum of 5 cycles each) (fold (ratio)); higher = stronger signal-on switching upon ATP binding; sequences stand for … in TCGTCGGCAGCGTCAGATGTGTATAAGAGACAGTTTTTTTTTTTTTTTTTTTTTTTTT…TC
Conditions: aptamer strand: ATP DNA aptamer (quencher-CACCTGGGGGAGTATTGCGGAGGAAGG + anchor), 100 nM annealed; ATP concentration: 500 uM
recorded.endpoint: switch fluorescence ratio

> print(dat)
    sequence.code  measurement
 1     TATGGATTGC        0.988
 2     GCGGTTGGAA        0.993
 3     TCAGGGGCTT         1.16
 4     GTGTGAGTTC         1.01
 5     CGTATTGGGG         1.04
 6     GGGTCGGCGA         1.03
 7     GTTCGAACGA        0.986
 8     TTTGGCGCTG        0.984
 9     CTCAAGACGG         1.06
10     GTTTTTTCGG        0.993
11     CCTGTTTGTA         1.01
12     GGTGAGGTTG        0.971
13     CGAACTGTGG        0.967
14     GGGAATTAAG        0.989
15     ATCGACATAG        0.998
16     TACAGACGAT          1.3
17     TCGGGGTAAT         1.03
18     CAATCTTGTC        0.975
19     GTGGTCGGGC            1
20     TCCGGAGGCA          2.2
21     AACTACCAGA         1.06
22     GAGGGCTAAA         1.06
23     ATTGTGGGGT        0.977
24     CATGTGCGAG         1.01
25     CGTGTTTTAC         1.02
26     AAAACGTTAC         1.68
27      TTTAAATTG            1
28     TAATGTAACG            1
29     ATAACATGAC         1.21
30     CATGCTGGGC         1.02
31     TTTGATGGCT         1.02
32     GGTTTCTTAG         0.98
33     TTGGAGGTTA        0.973
34     AAGGGGAACT        0.991
35     TACATGTCCG         1.05
36     TGGTTCGAGA        0.979
37     GCTTCTGGCA        0.999
38     CGGAGGGAGG        0.928
39     TGAGGAATTC            1
40     CTTCGGGCGA          1.1
41     GGGGTGTGCT          1.1
42     TGAGGTAGGC         1.05
43     TATTGGGGAA        0.978
44     AGATGGAGGC         1.07
45     CGGGAGGTAA        0.986
46     TTTTCTACCC         1.03
47     TTCCCTTTTG         1.02
48     TGTGGGTGGG        0.978
49     CATTGGAGCA         1.03
50     GAGAATTGGG         1.02
51     TTGCGGTATG        0.986
52     CCCCGGGTAA         1.33
53     CAAATGGGTC         1.06
54     TAAGAGTGCA        0.973
55     AGGTAGTAAG        0.995
56     CAGAGAATTT            1
57     GTTTCATATG         1.03
58     TCGGAGGGGG         1.05
59     GAGCGAGGGA         1.14
60     GGAACGTATT         1.01
61      ATTTTAACT        0.988
62     ATATACTATG         1.05
63     TTGGGGCGGG         1.01
64     CCAGTGTTCT         1.01
65     CGTCAAAAAC         1.38
66     TTTGAATGTA         1.01
67     AAATTGGCAG         1.06
68     ATCAAGGGGT         1.01
69     GCTTCTAGCT        0.969
70     GCCCTTAGCA         1.02
71     GGTGCATGGT         1.05
72     TGTAAATGTG            1
73     TGATATATTT         1.02
74     TGGAAATTGT        0.994
75     TCTATAATCG        0.977
76     TAGAGGGGGA        0.987
77     GCGCGCGATT        0.997
78     GCGGGGGGGA         1.01
79     GTTAGTAGAT         1.01
80     TAAGGAGTTT        0.972
81     AATTCGTATC         1.01
82     TAGCAGATCA        0.994
83     TTTGTGATTT         1.11
84     CAGTTGGGAG         1.01
85     TTGGGCATCT            1
86     CGGGCATGGG         1.01
